Molecular target: C-X-C chemokine receptor type 4 (Homo sapiens) (UniProt P61073)
Sequence (P61073 whole entry): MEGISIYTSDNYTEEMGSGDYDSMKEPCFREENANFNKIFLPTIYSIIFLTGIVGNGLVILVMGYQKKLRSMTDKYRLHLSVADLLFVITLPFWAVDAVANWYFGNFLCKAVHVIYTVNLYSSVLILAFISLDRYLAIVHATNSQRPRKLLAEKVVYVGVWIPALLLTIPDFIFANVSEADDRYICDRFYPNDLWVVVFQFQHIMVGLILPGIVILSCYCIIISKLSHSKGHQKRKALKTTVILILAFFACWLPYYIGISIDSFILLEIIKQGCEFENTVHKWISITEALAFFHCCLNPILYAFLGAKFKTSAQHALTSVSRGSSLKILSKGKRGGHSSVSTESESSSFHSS
Assay: Inhibition of biotinylated TN14003 binding to CXCR4 in human MDA-MB-231 cells preincubated for 10 mins followed by biotinylated-TN14003 addition measured after 30 mins by streptavidin-rhodamine staining based fluorescence microscopic analysis
Assay type: cell-based
Each record here notes measured EC.
Write the answer as a number in nM, unit excluded.

STRUCTURE NOTATION | EC / nM
Cc1ccccc1CNc1ccc(NCc2ccccc2C)nc1 | 100
Cc1cccc(CNc2ccc(NCc3cccc(C)c3)nc2)c1 | 100
O=[N+]([O-])c1cccc(CNc2ccc(NCc3cccc([N+](=O)[O-])c3)nc2)c1 | 1000
c1ccc(CNc2ccc(NCc3ccccc3)nc2)cc1 | 1000
Cc1ccccc1NCc1ccc(CNc2ccccc2C)nc1 | 1000
COc1ccc(NCc2ccc(CNc3ccc(OC)cc3)nc2)cc1 | 1000
Fc1ccccc1CNc1ccc(NCc2ccccc2F)nc1 | 100
O=[N+]([O-])c1ccc(NCc2ccc(CNc3ccc([N+](=O)[O-])cc3)nc2)cc1 | 1

// query EC value for entry `O=[N+]([O-])c1ccccc1NCc1ccc(CNc2ccccc2[N+](=O)[O-])nc1`
1000

What do you get for `Fc1ccccc1NCc1ccc(CNc2ccccc2F)nc1` ?
1000

Now this one: `Cc1ccc(NCc2ccc(CNc3ccc(C)cc3)nc2)cc1`
100

Try this molecule too: `O=[N+]([O-])c1ccc(CNc2ccc(NCc3ccc([N+](=O)[O-])cc3)nc2)cc1`
1000

`Fc1ccc(NCc2ccc(CNc3ccc(F)cc3)nc2)cc1` ?
1000

How about this molecule: `Fc1cccc(CNc2ccc(NCc3cccc(F)c3)nc2)c1`
100

* * *

Biological target: C-X-C chemokine receptor type 4 (Homo sapiens) (UniProt P61073)
Assay: Inhibition of CXCR4-mediated chemotaxis in human MDA-MB-231 cells assessed as reduction in CXCL12alpha-induced cell invasion at 100 nM after 22 hrs by hematoxylin/eosin dye-based matrigel assay relative to control
Reported inhibition values follow for various compounds
Return type: number; implicit unit %.

Consider the following illustrative entries.
STRUCTURE NOTATION | REPORTED
Cc1ccc(CNc2ccc(NCc3ccc(C)cc3)nc2)cc1 | 35.7
Cc1ccc(NCc2ccc(CNc3ccc(C)cc3)nc2)cc1 | 85.1
Clc1ccc(CNc2ccc(NCc3ccc(Cl)cc3)nc2)cc1 | 83.7

Given `Fc1ccccc1CNc1ccc(NCc2ccccc2F)nc1` , state its recorded inhibition.
53.3

Please answer likewise for `Cc1cccc(NCc2ccc(CNc3cccc(C)c3)nc2)c1`
99

Could you do the same for `Cc1cccc(CNc2ccc(NCc3cccc(C)c3)nc2)c1` , please?
50.4

Now this one: `O=[N+]([O-])c1cccc(NCc2ccc(CNc3cccc([N+](=O)[O-])c3)nc2)c1`
73.4

Now consider `Fc1cccc(CNc2ccc(NCc3cccc(F)c3)nc2)c1` and answer again.
4.8

# iterate: `COc1ccccc1NCc1ccc(CNc2ccccc2OC)nc1`
84.1

Try this compound next: `Cc1ccccc1CNc1ccc(NCc2ccccc2C)nc1`
82.4

Follow-up entry: `Fc1cccc(NCc2ccc(CNc3cccc(F)c3)nc2)c1`
82.4

* * *

System: Mus musculus
Assay: Antiinflammatory activity in C57Bl/6J mouse assessed as inhibition of carrageenan-induced paw edema at 10 mg/kg, ip treated for 2 days measured 2 hrs post last dose by caliper method relative to control
Type: functional
List of inhibition in vivo at 10 mg/kg values.
Give just the numeric value; % need not be written.

STRUCTURE NOTATION | MEASUREMENT UNIT | REPORTED
COc1ccccc1NCc1ccc(CNc2ccccc2OC)nc1 | % | 11
c1ccc(NCc2ccc(CNc3ccccn3)cc2)nc1 | % | 40
O=[N+]([O-])c1ccc(NCc2ccc(CNc3ccc([N+](=O)[O-])cc3)nc2)cc1 | % | 13

Which measured inhibition in vivo at 10 mg/kg value corresponds to `Cc1ccccc1CNc1ccc(NCc2ccccc2C)nc1` ?
3

Same thing, different compound: `Clc1ccc(CNc2ccc(NCc3ccc(Cl)cc3)nc2)cc1`
8

Lookup `Fc1cccc(NCc2ccc(CNc3cccc(F)c3)nc2)c1`
12

* * *

Target: C-X-C chemokine receptor type 4 (Homo sapiens)
Assay: Inhibition of biotinylated TN14003 binding to CXCR4 in human MDA-MB-231 cells preincubated for 10 mins followed by biotinylated-TN14003 addition measured after 30 mins by streptavidin-rhodamine staining based fluorescence microscopic analysis
Type: cell-based
QUANTITY NAME: EC (nM)
# value in nM; strip the unit string

EC for `O=[N+]([O-])c1ccccc1CNc1ccc(NCc2ccccc2[N+](=O)[O-])nc1` ?
1000

What do we get for `CCc1ccc(NCc2ccc(CNc3ccc(CC)cc3)nc2)cc1` ?
1000

Also check `Brc1ccc(NCc2ccc(CNc3ccc(Br)cc3)nc2)cc1`
1000

// query: `COc1cccc(NCc2ccc(CNc3cccc(OC)c3)nc2)c1`
100

Now the molecule `Brc1ccc(CNc2ccc(NCc3ccc(Br)cc3)nc2)cc1`
1000

`O=[N+]([O-])c1cccc(NCc2ccc(CNc3cccc([N+](=O)[O-])c3)nc2)c1` ?
100

* * *

inhibition values for the compounds below.
Target: C-X-C chemokine receptor type 4 (Homo sapiens)
Experiment: Inhibition of CXCR4-mediated chemotaxis in human MDA-MB-231 cells assessed as reduction in CXCL12alpha-induced cell invasion at 100 nM after 22 hrs by hematoxylin/eosin dye-based matrigel assay relative to control
Field: numeric (%). Do not append units.

STRUCTURE NOTATION | REPORTED
COc1cccc(NCc2ccc(CNc3cccc(OC)c3)nc2)c1 | 76.8
O=[N+]([O-])c1ccc(NCc2ccc(CNc3ccc([N+](=O)[O-])cc3)nc2)cc1 | 80.3

Given the entry `c1cc(CN2CCCNCCNCCCNCC2)ccc1CN1CCCNCCNCCCNCC1` , report its measured inhibition.
62

* * *

Molecular target: C-X-C chemokine receptor type 4 (Homo sapiens)
Experiment: Inhibition of biotinylated TN14003 binding to CXCR4 in human MDA-MB-231 cells preincubated for 10 mins followed by biotinylated-TN14003 addition measured after 30 mins by streptavidin-rhodamine staining based fluorescence microscopic analysis
Type: cell-based
QUANTITY NAME: EC

STRUCTURE NOTATION | REPORTED
CCc1ccc(CNc2ccc(NCc3ccc(CC)cc3)nc2)cc1 | > 1000 nM

Data request, read-out EC, for `COc1cccc(CNc2ccc(NCc3cccc(OC)c3)nc2)c1`
> 1000 nM

Try `Fc1ccc(CNc2ccc(NCc3ccc(F)cc3)nc2)cc1` next.
1000 nM

# repeat for `Clc1ccc(CNc2ccc(NCc3ccc(Cl)cc3)nc2)cc1`
10 nM

Next molecule up: `Clc1ccc(NCc2ccc(CNc3ccc(Cl)cc3)nc2)cc1`
1000 nM

Another molecule to check: `COc1ccccc1CNc1ccc(NCc2ccccc2OC)nc1`
> 1000 nM

Input `Fc1cccc(NCc2ccc(CNc3cccc(F)c3)nc2)c1`
100 nM

Another molecule to look at: `c1ccc(NCc2ccc(CNc3ccccc3)nc2)cc1`
1000 nM

Queued: `Cc1ccc(CNc2ccc(NCc3ccc(C)cc3)nc2)cc1`
10 nM
